Quick reference for GI50 among some compounds
# Test system: SN12C renal
# assay.method.text: NCI tumour cell line growth inhibition, 48 h

Check out these entries, answers already filled in.
compound	GI50
C=C1CC[C@@H]2[C@](C)(COC(C)=O)[C@H](OC(C)=O)CC[C@@]2(C)[C@@H]1CC(Nc1ccc(S(=O)(=O)Nc2nccc(C)n2)cc1)C1=CCOC1=O (some centres undefined)	2.64 µM
CN(C)C(=S)N=Nc1c(O)[nH]c2ccccc12	0.578 µM
COC(=O)c1cc(C#Cc2cc(OC)ccc2OC)ccc1OC	37.9 µM

I have this compound here, O=C1/C(=C/c2ccc(O)cc2)COc2ccc(-c3ccccc3)cc21 , and I need its recorded GI50.
7.29 µM

---

# Tested on: A498 renal
# assay.method.text: NCI tumour cell line growth inhibition, 48 h; in the data active = GI50 below about 0.43 µM; inactive = the rest
The reply should name one outcome from TRUE for active, FALSE for inactive

What was the test verdict on Cc1cc(C(C#N)c2ccc(Cl)cc2)c(Cl)cc1NC(=O)c1cc(I)cc(I)c1O (stereo not drawn) ?
FALSE

---

# Tested on: SR leukemia
# assay.method.text: NCI tumour cell line growth inhibition, 48 h
Quick reference for TGI among some compounds

compound	observed.measurement
O=C(CCl)N1c2ccccc2Sc2c1ccc1ccccc21	9.55 µM

I have this compound here, COc1ccc(CC(C)N)cc1 (configuration not stated) , and I need its recorded TGI.
> 100 µM

I have this compound here, Cc1cc(=O)oc2cc3c(cc12)Oc1ccccc1O3 , and I need its recorded TGI.
> 100 µM

I have this compound here, COC(=O)c1cc(C#Cc2cc(OC)ccc2OC)ccc1OC , and I need its recorded TGI.
> 100 µM

I have this compound here, C=C1C(=O)O[C@H]2[C@H]1CC/C(COC(=O)N1CCC[C@H]1C(=O)Nc1ccc(OC)c(C(N)=O)c1O)=C\CC[C@@]1(C)O[C@@H]21 , and I need its recorded TGI.
12.7 µM

---

Quick reference for TGI among some compounds
# Tested on: CCRF-CEM leukemia
# assay.method.text: NCI tumour cell line growth inhibition, 48 h

compound	TGI
CC(=O)c1cc([N+](=O)[O-])ccc1OCC(=O)O	> 100 µM
COc1cccc(NC(=O)CC(=O)N2N=C(C)C(N=Nc3ccc(S(=O)(=O)c4ccc(N=NC5C(=O)N(C(=O)CC(=O)Nc6cccc(OC)c6)N=C5C)cc4)cc3)C2=O)c1 (configuration not stated)	> 100 µM
Cc1c(NC(=S)Nc2ccc(Cl)cc2)c(=O)n(-c2ccccc2)n1C	> 100 µM
Cc1cccc2c1NC(=S)[C@@H]1CCCN1C2=O	> 100 µM
CC1S(=O)(=O)OCCOS1(=O)=O	> 100 µM

Now consider the entry below.
I have this compound here, Cc1cccc(C(O)c2ccncc2)c1O (configuration not stated) , and I need its recorded TGI.
> 100 µM

---

Quick reference for TGI among some compounds
# Test system: MCF7 breast
# assay.method.text: NCI tumour cell line growth inhibition, 48 h

compound	TGI
Nc1nc2c(c(=O)[nH]1)CN(c1ccc(S(N)(=O)=O)cc1)CN2	> 100 µM
Cc1ccc(C(O)c2cnc(C)n2Cc2ccccc2)cc1 (stereo unspecified)	> 100 µM
C[C@H](O)C1CC(Cn2nnc3c(N)ncnc32)C1(C)C (stereo partly specified)	> 100 µM
COc1ccc(CCNC(=O)Cc2cc(OC)c(OC)cc2CO)cc1OC	> 100 µM

Give TGI (MCF7 breast) of the following compound: C(=C\C(SCc1ccccc1)SCc1ccccc1)/c1ccccc1
> 10 µM

Give TGI (MCF7 breast) of the following compound: C[C@H]1[C@H](C)CC[C@]2(C(=O)O)CC[C@]3(C)C(=CC[C@@H]4[C@@]5(C)C/C(=C/c6cccnc6)[C@H](O)C(C)(C)[C@@H]5CC[C@]43C)[C@H]12
> 100 µM

Give TGI (MCF7 breast) of the following compound: CCC(=O)O[C@H]1CC[C@H]2[C@@H]3CCC4=C/C(=N/NC(=O)c5cccc6c(=O)c7ccccc7[nH]c56)CC[C@]4(C)[C@H]3CC[C@]12C
> 25 µM
